Target: hERG (Homo sapiens, UniProt Q12809)
Sequence (Q12809 whole entry): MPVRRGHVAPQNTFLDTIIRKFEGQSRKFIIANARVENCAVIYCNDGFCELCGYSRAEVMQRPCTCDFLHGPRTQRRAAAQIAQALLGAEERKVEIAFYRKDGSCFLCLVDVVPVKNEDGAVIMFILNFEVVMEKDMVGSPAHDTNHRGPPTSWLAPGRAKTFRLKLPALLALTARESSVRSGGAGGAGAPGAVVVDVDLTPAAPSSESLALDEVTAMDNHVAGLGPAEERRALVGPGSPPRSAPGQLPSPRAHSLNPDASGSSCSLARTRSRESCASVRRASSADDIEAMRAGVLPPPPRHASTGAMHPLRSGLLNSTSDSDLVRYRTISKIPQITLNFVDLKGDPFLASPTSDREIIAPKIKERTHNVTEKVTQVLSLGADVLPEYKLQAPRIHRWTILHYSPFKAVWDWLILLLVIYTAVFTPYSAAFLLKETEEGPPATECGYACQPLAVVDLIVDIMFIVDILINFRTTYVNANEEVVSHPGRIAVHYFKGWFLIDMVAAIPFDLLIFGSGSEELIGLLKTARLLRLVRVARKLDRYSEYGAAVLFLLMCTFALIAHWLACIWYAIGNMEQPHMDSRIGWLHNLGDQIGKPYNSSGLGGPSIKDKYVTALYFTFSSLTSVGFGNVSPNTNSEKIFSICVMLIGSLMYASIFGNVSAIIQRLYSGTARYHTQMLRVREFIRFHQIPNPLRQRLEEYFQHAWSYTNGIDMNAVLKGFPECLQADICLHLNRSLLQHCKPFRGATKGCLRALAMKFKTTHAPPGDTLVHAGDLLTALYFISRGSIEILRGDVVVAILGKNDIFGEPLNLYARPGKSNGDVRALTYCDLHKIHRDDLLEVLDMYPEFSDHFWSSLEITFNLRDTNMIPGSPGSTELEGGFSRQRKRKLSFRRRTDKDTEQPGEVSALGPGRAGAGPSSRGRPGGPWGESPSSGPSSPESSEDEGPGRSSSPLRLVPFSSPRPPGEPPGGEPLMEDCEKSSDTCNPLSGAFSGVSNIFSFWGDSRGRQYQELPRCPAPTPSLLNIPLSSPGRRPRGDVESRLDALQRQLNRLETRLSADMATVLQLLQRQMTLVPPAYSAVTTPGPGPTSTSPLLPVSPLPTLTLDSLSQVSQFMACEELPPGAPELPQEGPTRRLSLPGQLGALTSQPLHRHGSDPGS
Assay: hERG assay (whole-cell manual patch clamp, stably-transfected HEK293/hERG cells)
Conditions: tail current, test concentrations 0.1-30 μM, read-out: hERG Assay GMean IC50
property: pIC50
Answers are plain numbers, as −log10 of the molar value.

Look up pIC50 for the entries below, preserving their order.
1. CC(C)(O)[C@](C)(O)c1cc2nc(-c3cnn(CF)c3)c(N3CCN(Cc4ccccc4F)CC3)nc2cn1 (single isomer, unassigned)
2. CCn1cc(-c2nc3cnc([C@H](O)C(C)(C)O)cc3nc2N2CCN(Cc3ccc(F)cc3F)CC2)cn1 (single isomer, unassigned)
3. CC(C)(O)[C@@H](O)c1cc2nc(N3CCN(Cc4ccc(F)cc4F)CC3)c(-c3cnn(C4CC4)c3)nc2cn1 (single isomer, unassigned)

4.61
4.66
4.87

###

Molecular target: GPR6 (Homo sapiens)
Construct: expressed in transfected cells; host or cells: CHO cells
Test: GPR6 antagonist functional cAMP assay (LANCE Ultra cAMP TR-FRET, CHO cells stably expressing GPR6)
Type: cell-based
Conditions: procedure of Example 24
pIC50: −log10 of the molar value.
property: pIC50

Look at each molecule and report its pIC50.
1. Cn1cc(-c2nc3cnc(C(=O)O)cc3nc2N2CCC(Oc3ccc(F)cc3F)CC2)cn1
2. CC(C)(O)[C@H](O)c1cc2nc(N3CCC(Cc4ccc(F)cc4F)CC3)c(-c3cnn(CF)c3)nc2cn1 (single isomer, unassigned)
3. CC(C)(O)C(O)c1cc2nc(-c3cnn(C(F)F)c3)c(N3CCN(Cc4ccccc4F)CC3)nc2cn1 (single isomer, unassigned)
4. CC(=O)N1CCc2nc(N3CCN(Cc4ccc(OC(F)(F)F)cc4)CC3)c(-c3cnn(C)c3)nc2C1
5. CC(=O)N1CCc2nc(N3CCC4(CC3)CC4c3ccc(F)cc3F)c(-c3cnn(C)c3)nc2C1 (centres unmarked)
6. CC(C)(O)C(O)c1cc2nc(N3CCN(Cc4ccc(F)cc4F)CC3)c(-c3ccc(F)c(N)n3)nc2cn1 (centres unmarked)
7. CC(=O)N1CCc2nc(N3CCN(C(c4ccccc4)C(F)(F)F)CC3)c(-c3cnn(C)c3)nc2C1 (centres unmarked)

4.52 to 6.00
> 7.00
> 7.00
4.52 to 6.00
4.52 to 6.00
6.00 to 7.00
4.52 to 6.00

###

Target: GPR6 (Homo sapiens, UniProt P46095)
Construct: expressed in transfected cells; host or cells: CHO cells
Sequence (P46095 whole entry): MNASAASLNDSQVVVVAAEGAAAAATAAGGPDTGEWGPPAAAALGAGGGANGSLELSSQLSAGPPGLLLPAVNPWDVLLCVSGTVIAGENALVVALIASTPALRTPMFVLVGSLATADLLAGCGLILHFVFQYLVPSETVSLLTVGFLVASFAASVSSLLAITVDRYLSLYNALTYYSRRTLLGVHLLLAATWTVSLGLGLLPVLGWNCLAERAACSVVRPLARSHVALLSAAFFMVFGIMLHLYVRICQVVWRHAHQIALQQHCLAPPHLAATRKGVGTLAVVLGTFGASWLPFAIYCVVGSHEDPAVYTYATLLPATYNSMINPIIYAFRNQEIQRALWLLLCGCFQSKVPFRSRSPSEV
Assay: GPR6 antagonist functional cAMP assay (LANCE Ultra cAMP TR-FRET, CHO cells stably expressing GPR6)
Format: cell-based
Details: CHO cells stably expressing GPR6, cAMP assay
property: IC50

A selection of reference data follows.
| compound | IC50 |
| --- | --- |
| COC[C@H]1C[C@@H]1c1nc2c(nc1N1CCC(Oc3ccc(F)cc3F)CC1)CCN(C(C)=O)C2 | < 100 nM |
| CC(=O)N1Cc2nc(-c3cnn(C)c3)c(N3CCC(Oc4ccc(F)cc4F)CC3)nc2CC1CO (stereo not shown) | 100 to 1000 nM |

Answer for every listed entry: what is its IC50? The entries follow.
1. CC(C)(O)C(=O)c1cc2nc(N3CCN(Cc4ccccc4F)CC3)c(-c3cnn(CF)c3)nc2cn1
2. CC(=O)N1CCc2nc(N3CCC(Oc4ccc(F)cc4F)CC3)c(C3CCN(S(C)(=O)=O)C3)nc2C1 (stereo not shown)
3. CC(=O)N1CCc2nc(N3CCN(Cc4ccccn4)CC3)c(-c3cnn(C)c3)nc2C1
4. CCn1cc(-c2nc3c(nc2N2CCN(C(=O)c4ccc(Cl)c(C)c4)CC2)CCN(C(C)=O)C3)cn1

100 to 1000 nM
1000 to 30000 nM
≥ 30000 nM
1000 to 30000 nM

Return reported IC50. Input compound: "CC(=O)N1CCc2nc(N3CCC(Oc4ccc(C(F)(F)F)cc4F)CC3)c(-c3cnn(C)c3)nc2C1"
100 to 1000 nM
